Tested on: P aeruginosa
Assay: MIC by broth microdilution, P aeruginosa isolates
Assay type: cell-based, Pseudomonas aeruginosa
Conditions: strain AG32; Table 1 (Example 2)
Readings of MIC50 P aeruginosa AG32 for the listed compounds

In the examples that follow, each entry is paired with its recorded MIC50 P aeruginosa AG32.
[
  {
    "COMPOUND": "CCCC(O)C1OC(OC2C(N)CC(N)C(O)C2OC2OC(CO)C(OC3OC(CN)C(O)C(O)C3N)C2O)C(N)C(O)C1O (centres unmarked) [Compound 142]",
    "MIC50 P aeruginosa AG32": ">128 µg/mL"
  },
  {
    "COMPOUND": "CC1CC(O)C2O[C@H](O[C@@H]3C(N)C[C@@H](N)C(O)[C@H]3O[C@@H]3O[C@H](CO)[C@H](O[C@H]4O[C@@H](CN)[C@@H](O)C(O)C4N)C3O)C(N)[C@@H](O)[C@@H]2O1 (some centres unmarked) [Compound 125]",
    "MIC50 P aeruginosa AG32": "16 to 32 µg/mL"
  },
  {
    "COMPOUND": "CC1CC(N)C2O[C@H](O[C@@H]3C(N)C[C@@H](N)C(O)[C@H]3O[C@@H]3O[C@H](CO)[C@H](O[C@H]4O[C@@H](CN)[C@@H](O)C(O)C4N)C3O)C(N)[C@@H](O)[C@@H]2O1 (some centres unmarked) [Compound 150]",
    "MIC50 P aeruginosa AG32": ">128 µg/mL"
  },
  {
    "COMPOUND": "CC1CC(O)C2O[C@H](O[C@@H]3C(N)C[C@@H](N)C(O)[C@H]3O[C@@H]3O[C@H](CO)[C@H](O[C@H]4O[C@@H](CN)[C@@H](O)C(O)C4N)C3O)C(N)[C@@H](O)[C@@H]2O1 (some centres unmarked) [Compound 109]",
    "MIC50 P aeruginosa AG32": ">128 µg/mL"
  }
]

Exam item: Give the measured MIC50 P aeruginosa AG32 of CC1CC(N)C2O[C@H](O[C@@H]3C(N)C[C@@H](N)C(O)[C@H]3O[C@@H]3O[C@H](CO)[C@H](O[C@H]4O[C@@H](CN)[C@@H](O)C(O)C4N)C3O)C(N)[C@@H](O)[C@@H]2O1 (some centres unmarked) [Compound 139] .
Marked response: 32 µg/mL
